Assay: Area under the concentration time curve in monkey (intravenous dosage of 1.25 mg/ kg) was determined
Assay type: ADME
Conditions: cercopithecidae, in vivo
QUANTITY_MEASURED: AUC (ng·h/mL)
Provide only the numeric value, understood in ng·h/mL.

Identify the reported AUC for the following entry. Cc1cc(/C=C/C#N)cc(C)c1Nc1ccnc(Nc2ccc(C#N)cc2)n1 [RILPIVIRINE] 1400

* * *

Test: Half life in dog was determined by intravenous administration
Assay type: ADME, organism-based, Canis lupus familiaris
Conditions: in vivo
QUANTITY_MEASURED: half-life (h)
Report as a plain number; the unit h is understood.

Output half-life of Cc1cc(/C=C/C#N)cc(C)c1Nc1ccnc(Nc2ccc(C#N)cc2)n1 [RILPIVIRINE] 31
